# subjectOfTest: 5-hydroxytryptamine receptor 7 (Rattus norvegicus)
pKi: −log10 of the molar value.

| molecule | pKi |
| --- | --- |
| CN1CCc2ccc3c4c2[C@H]1Cc1cccc(c1-4)[C@H]3O | 7.85 |
| Cc1cccc(C#N)c1-c1cccc2c1-c1cccc3c1[C@@H](C2)N(C)CC3 (stereo in doubt; 58) | 8.42 |
| CN1CCc2ccc3c(=O)[nH]c4cccc5c4c3c2[C@H]1C5 | 6.47 |
| CN1CCc2ccc3c4c2[C@@]1(C)Cc1cccc(c1-4)C3 | 8.15 |
| CO[C@]1(C)c2cccc3c2-c2c1ccc1c2[C@@H](C3)N(C)CC1 | 8.96 |
| CN1CCc2ccc3c4c2[C@H]1Cc1cccc(c1-4)[C@@H]3O | 7.00 |
| CN1CCc2ccc3c(=O)oc4cccc5c4c3c2[C@H]1C5 | 5.82 |
| CN1CCc2ccc3c4c2[C@H]1Cc1cccc(c1-4)[C@@]3(C)O | 7.55 |
| CN1CCc2ccc3[nH]c(=O)c4cccc5c4c3c2[C@H]1C5 | 7.26 |

* * *

# subjectOfTest: UniProtKB P61169
# protocolSummary: Displacement of [3H]raclopride from rat dopamine D2 receptor
pKi: −log10 of the molar value.
Criterion: pKi meeting or surpassing 6. Met: Met. Not met: Not met.

| molecule | group |
| --- | --- |
| CN1CCc2ccc3c4c2[C@H]1Cc1cccc(c1-4)[C@@]3(C)O | Met |
| CCCCC(=O)Oc1cccc2c1-c1cccc3c1[C@@H](C2)N(CCC)CC3 | Met |
| CCN1CCc2cccc3c2C1Cc1cc(O)ccc1O3 (stereo not drawn) | Not met |
| CCc1cccc2c1-c1cccc3c1[C@@H](C2)N(C)CC3 | Met |
| COc1cc2c(cc1O)C[C@H]1c3c(c(I)c(O)c(OC)c3-2)CCN1C | Met |
| CCCN1CCc2cc(O)cc3c2C1Cc1ccccc1O3 (stereo not drawn) | Not met |
| C[C@H]1c2cccc3c2-c2c1ccc1c2[C@@H](C3)N(C)CC1 | Met |
| Cc1cccc(O)c1-c1cccc2c1-c1cccc3c1[C@@H](C2)N(C)CC3 (stereo in doubt; 60) | Not met |
| COc1cc2c3c(c1OC)Cc1ccccc1CC3N(Cc1ccccc1)CC2 (stereo not drawn) | Not met |
| CCCN1CCc2cccc3c2C1Cc1cc(O)ccc1O3 (stereo not drawn) | Not met |
| CCCN1CCc2cc(OC)cc3c2C1Cc1ccccc1C3 (stereo not drawn) | Not met |
| CCCN1CCc2cc(SC)cc3c2[C@H]1Cc1ccc(O)c(O)c1-3 | Met |
| CCCN1CCc2cc(OC)c(OC)c3c2C1Cc1ccccc1C3 (stereo not drawn) | Not met |
| COc1cc2c3c(c1OC)Cc1ccccc1CC3N(C)CC2 (stereo not drawn) | Not met |
| CO[C@]1(C)c2cccc3c2-c2c1ccc1c2[C@@H](C3)N(C)CC1 | Met |
| COc1cc2c(cc1OC)-c1c(OC)c(OC)cc3c1[C@H](C2)N(C)CC3 [GLAUCINE] | Not met |
| COc1cc2c3c(c1)Cc1ccccc1CC3NCC2 (stereo not drawn) | Not met |
| CCCN1CCc2cc(O)c(O)c3c2C1Cc1ccccc1C3 (stereo not drawn) | Not met |
| COc1cc2c3c(c1OC)Cc1ccccc1CC3NCC2 (stereo not drawn) | Not met |
| CN1CCc2ccc3c(=O)oc4cccc5c4c3c2[C@H]1C5 | Met |
| COc1cc2c(cc1OC)-c1c(OC)c(OC)c(Br)c3c1[C@H](C2)N(C)CC3 | Not met |
| CN1CCc2cc(O)c(O)c3c2C1Cc1ccccc1C3 (stereo not drawn) | Not met |

* * *

# subjectOfTest: 5-hydroxytryptamine receptor 1A (Rattus norvegicus, UniProt P19327)
# Sequence (P19327 whole entry): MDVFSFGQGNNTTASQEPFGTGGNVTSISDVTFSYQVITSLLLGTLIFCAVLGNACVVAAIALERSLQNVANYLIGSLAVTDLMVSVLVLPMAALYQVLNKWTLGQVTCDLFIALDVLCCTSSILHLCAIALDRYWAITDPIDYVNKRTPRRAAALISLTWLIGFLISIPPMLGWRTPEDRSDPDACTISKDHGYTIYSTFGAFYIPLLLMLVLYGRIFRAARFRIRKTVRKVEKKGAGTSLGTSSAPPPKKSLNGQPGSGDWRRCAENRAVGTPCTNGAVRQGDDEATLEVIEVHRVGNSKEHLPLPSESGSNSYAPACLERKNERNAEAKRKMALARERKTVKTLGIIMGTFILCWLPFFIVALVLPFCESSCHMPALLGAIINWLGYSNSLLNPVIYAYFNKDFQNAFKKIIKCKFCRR
# protocolSummary: Displacement of [3H]8-OH-DPAT from rat 5HT1A receptor
Entries and their log10 Ki
measurementName: log10 Ki (log10 of the value in nM)

| compound | subjectOfTest | log10 Ki |
| --- | --- | --- |
| CC(=O)N[C@H]1c2cccc3c2-c2c1ccc1c2[C@@H](C3)N(C)CC1 | 5-hydroxytryptamine receptor 1A (Rattus norvegicus, UniProt P19327) | 2.86 |
| C[C@H]1c2cccc3c2-c2c1ccc1c2[C@@H](C3)N(C)CC1 | 5-hydroxytryptamine receptor 1A (Rattus norvegicus, UniProt P19327) | 1.49 |
| Cc1cccc(O)c1-c1cccc2c1-c1cccc3c1[C@@H](C2)N(C)CC3 (stereo in doubt; 59) | 5-hydroxytryptamine receptor 1A (Rattus norvegicus, UniProt P19327) | 5.48 |
| CN1CCc2ccc3c4c2[C@H]1Cc1cccc(c1-4)[C@@]3(C)O | 5-hydroxytryptamine receptor 1A (Rattus norvegicus, UniProt P19327) | 2.49 |
| CN1CCc2ccc3c4c2[C@@]1(C)Cc1cccc(c1-4)C3 | 5-hydroxytryptamine receptor 1A (Rattus norvegicus, UniProt P19327) | 1.61 |
| CN1CCc2ccc3[nH]c(=O)c4cccc5c4c3c2[C@H]1C5 | 5-hydroxytryptamine receptor 1A (Rattus norvegicus, UniProt P19327) | 2.26 |
| CN1CCc2ccc3c(=O)[nH]c4cccc5c4c3c2[C@H]1C5 | 5-hydroxytryptamine receptor 1A (Rattus norvegicus, UniProt P19327) | 2.57 |
| Cc1cccc(C#N)c1-c1cccc2c1-c1cccc3c1[C@@H](C2)N(C)CC3 (stereo in doubt; 57) | 5-hydroxytryptamine receptor 1A (Rattus norvegicus, UniProt P19327) | 5.90 |
| CC(=O)N[C@@H]1c2cccc3c2-c2c1ccc1c2[C@@H](C3)N(C)CC1 | 5-hydroxytryptamine receptor 1A (Rattus norvegicus, UniProt P19327) | 2.30 |
| CO[C@]1(C)c2cccc3c2-c2c1ccc1c2[C@@H](C3)N(C)CC1 | 5-hydroxytryptamine receptor 1A (Rattus norvegicus, UniProt P19327) | 1.23 |

* * *

# subjectOfTest: D(2) dopamine receptor (Rattus norvegicus, UniProt P61169)
# Sequence (P61169 whole entry): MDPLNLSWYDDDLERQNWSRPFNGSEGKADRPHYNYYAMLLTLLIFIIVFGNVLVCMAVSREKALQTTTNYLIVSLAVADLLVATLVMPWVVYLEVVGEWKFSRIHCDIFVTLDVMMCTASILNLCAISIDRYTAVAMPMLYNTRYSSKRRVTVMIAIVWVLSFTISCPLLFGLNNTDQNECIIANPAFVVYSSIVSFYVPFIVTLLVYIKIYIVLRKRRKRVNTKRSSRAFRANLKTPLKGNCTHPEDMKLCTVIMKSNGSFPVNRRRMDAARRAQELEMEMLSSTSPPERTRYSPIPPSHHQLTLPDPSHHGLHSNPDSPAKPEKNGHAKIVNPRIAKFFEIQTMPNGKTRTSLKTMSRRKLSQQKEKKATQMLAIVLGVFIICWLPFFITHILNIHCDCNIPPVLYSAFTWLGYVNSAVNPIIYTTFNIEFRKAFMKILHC
# protocolSummary: Displacement of [3H]raclopride from rat dopamine D2 receptor
pKi: −log10 of the molar value.

| compound | pKi |
| --- | --- |
| CN1CCc2ccc3c(=O)[nH]c4cccc5c4c3c2[C@H]1C5 | 5.21 |
| Cc1cccc(C#N)c1-c1cccc2c1-c1cccc3c1[C@@H](C2)N(C)CC3 (stereo in doubt; 57) | 5.60 |
| Oc1cc2c3c(c1)Cc1ccccc1CC3NCC2 (stereo not given) | 4.70 |
| COc1cc2c(cc1OC)-c1c(OC)c(O)c(Br)c3c1[C@H](C2)N(C)CC3 | 6.21 |
| C[C@@H]1c2cccc3c2-c2c1ccc1c2[C@@H](C3)N(C)CC1 | 7.72 |

* * *

# subjectOfTest: D(2) dopamine receptor (Rattus norvegicus)
# protocolSummary: Displacement of [3H]raclopride from rat dopamine D2 receptor
pKi: −log10 of the molar value.
Let's look at some compounds and their measured pKi.

| compound | relationSign | pKi |
| --- | --- | --- |
| Cc1ccc2c(c1O)-c1cccc3c1[C@@H](C2)N(C)CC3 | = | 5.97 |
| CN1CCc2ccc3c4c2[C@H]1Cc1cccc(c1-4)[C@H]3O | = | 7.62 |
| CC(=O)N[C@@H]1c2cccc3c2-c2c1ccc1c2[C@@H](C3)N(C)CC1 | = | 5.44 |
| CCN1CCc2cc(O)cc3c2C1Cc1ccccc1C3 (configuration not stated) | = | 4.82 |
| COc1cc2c(cc1OC)-c1c(OC)c(OC)c(I)c3c1[C@H](C2)N(C)CC3 | = | 5.35 |
| Oc1cccc2c1-c1cccc3c1[C@@H](C2)NCC3 | = | 6.00 |
| CC(=O)N[C@H]1c2cccc3c2-c2c1ccc1c2[C@@H](C3)N(C)CC1 | = | 5.10 |
| CCN1CCc2cc(OC)cc3c2C1Cc1ccccc1C3 (configuration not stated) | = | 5.01 |
| COc1cc2c(cc1OC)-c1c(OC)c(O)cc3c1[C@H](C2)N(C)CC3 | = | 6.12 |
| Oc1cc2c3c(c1O)Cc1ccccc1CC3NCC2 (configuration not stated) | = | 5.10 |
| CCCN1CCc2cc(F)cc3c2[C@H]1Cc1cccc(OC=O)c1-3 | = | 7.41 |
| CO[C@@]1(C)c2cccc3c2-c2c1ccc1c2[C@@H](C3)N(C)CC1 | = | 7.15 |
| CN1CCc2ccc3c4c2[C@H]1Cc1cccc(c1-4)[C@@H]3O | = | 6.68 |
| Cc1ccc2c(c1O)-c1cccc3c1[C@@H](C2)NCC3 | < | 5.00 |
| CN1CCc2ccc3c4c2[C@H]1Cc1cccc(c1-4)[C@]3(C)O | = | 7.59 |
| COc1cc2c3c(c1)Cc1ccccc1CC3N(C)CC2 (configuration not stated) | = | 5.09 |
| CN1CCc2cc(O)cc3c2C1Cc1ccccc1O3 (configuration not stated) | = | 6.57 |
| CCCCCCCCCCCCCCCCCCCCCC(=O)Oc1cccc2c1-c1cccc3c1[C@@H](C2)N(CCC)CC3 | = | 6.74 |
| CN1CCc2cc(-c3ccc(O)cc3)cc3c2[C@H]1Cc1cccc(O)c1-3 | = | 8.42 |
| CCN1CCc2cc(O)c(O)c3c2C1Cc1ccccc1C3 (configuration not stated) | = | 4.80 |
| CN1CCc2ccc3c4c2[C@@]1(C)Cc1cccc(c1-4)C3 | = | 7.08 |
| CN1CCc2ccc3[nH]c(=O)c4cccc5c4c3c2[C@H]1C5 | = | 7.26 |
